biological target: Topoisomerase II α human (Homo sapiens); construct: purchased Sigma Aldrich (St. Louis, MO, USA); assay: Isothermal titration calorimetry (ITC) of interactions with TOPIIα; type: binding; conditions: single compounds; 36.6 °C; mean ± SD, n = 6
Sequence (P11388 whole entry): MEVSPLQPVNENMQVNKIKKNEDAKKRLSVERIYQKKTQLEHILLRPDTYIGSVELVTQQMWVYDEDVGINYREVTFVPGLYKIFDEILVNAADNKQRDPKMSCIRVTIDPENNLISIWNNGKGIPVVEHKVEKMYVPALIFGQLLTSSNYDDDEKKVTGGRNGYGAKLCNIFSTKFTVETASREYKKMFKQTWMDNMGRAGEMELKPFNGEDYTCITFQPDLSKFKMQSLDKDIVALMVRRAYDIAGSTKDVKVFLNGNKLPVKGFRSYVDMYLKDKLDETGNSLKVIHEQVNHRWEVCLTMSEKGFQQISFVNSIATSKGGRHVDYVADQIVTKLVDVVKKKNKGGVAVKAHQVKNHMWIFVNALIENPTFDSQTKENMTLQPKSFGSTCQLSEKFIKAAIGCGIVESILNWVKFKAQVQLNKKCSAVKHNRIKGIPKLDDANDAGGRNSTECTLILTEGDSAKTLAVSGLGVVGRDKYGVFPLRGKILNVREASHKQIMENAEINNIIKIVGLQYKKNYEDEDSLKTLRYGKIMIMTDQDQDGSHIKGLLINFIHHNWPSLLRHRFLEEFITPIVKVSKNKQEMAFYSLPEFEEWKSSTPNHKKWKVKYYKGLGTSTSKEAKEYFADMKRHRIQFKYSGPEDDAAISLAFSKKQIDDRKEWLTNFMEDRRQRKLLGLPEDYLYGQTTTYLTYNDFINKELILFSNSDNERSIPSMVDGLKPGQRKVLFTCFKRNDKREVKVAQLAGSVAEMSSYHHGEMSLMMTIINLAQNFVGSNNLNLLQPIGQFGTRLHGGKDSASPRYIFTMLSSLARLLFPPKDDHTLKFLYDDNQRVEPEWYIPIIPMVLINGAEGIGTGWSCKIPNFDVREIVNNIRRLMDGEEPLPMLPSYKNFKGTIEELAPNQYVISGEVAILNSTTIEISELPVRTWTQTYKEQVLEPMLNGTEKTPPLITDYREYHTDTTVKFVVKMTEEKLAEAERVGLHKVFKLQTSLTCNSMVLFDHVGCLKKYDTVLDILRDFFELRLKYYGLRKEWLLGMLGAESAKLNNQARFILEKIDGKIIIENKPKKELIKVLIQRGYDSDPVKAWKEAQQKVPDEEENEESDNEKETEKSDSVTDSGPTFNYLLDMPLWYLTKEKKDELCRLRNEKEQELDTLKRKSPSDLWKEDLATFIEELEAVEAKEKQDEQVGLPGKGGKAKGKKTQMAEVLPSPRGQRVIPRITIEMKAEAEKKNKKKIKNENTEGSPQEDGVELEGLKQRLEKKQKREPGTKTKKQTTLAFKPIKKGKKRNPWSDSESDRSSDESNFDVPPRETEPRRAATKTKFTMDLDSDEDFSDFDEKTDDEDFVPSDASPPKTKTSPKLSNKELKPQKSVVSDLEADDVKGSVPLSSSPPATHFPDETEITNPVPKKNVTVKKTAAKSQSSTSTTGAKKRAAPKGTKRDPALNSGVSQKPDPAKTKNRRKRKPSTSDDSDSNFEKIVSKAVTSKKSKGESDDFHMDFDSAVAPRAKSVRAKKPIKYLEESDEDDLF
Marks after values point to notes of the source that are not given here.
Listing of recorded ∆G (kJ/mol) ITC by entry.

Field: example entries. Status: answers known.
O=C(C=Cc1ccc(O)c(O)c1)OC1CC(O)(C(=O)O)CC(OC(=O)C=Cc2ccc(O)c(O)c2)C1O (centres unmarked): −33.87 ± 1.39 ^a kJ/mol
Cn1c(=O)c2c(ncn2C)n(C)c1=O [Caffeine, reference compound]: −34.50 ± 1.15 ^d kJ/mol
O=C(C=Cc1ccc(O)c(O)c1)OC1CC(O)(C(=O)O)CC(O)C1OC(=O)C=Cc1ccc(O)c(O)c1 (centres unmarked): −37.64 ± 1.35 ^c kJ/mol
O=C(O)CCc1ccc(O)c(O)c1 [Dihydrocaffeic acid]: −34.42 ± 1.33 ^d kJ/mol

Exercise: // lookup ∆G (kJ/mol) ITC for O=C(O)/C=C/c1ccc(O)c(O)c1
Solution: −33.54 ± 1.09 ^a kJ/mol
